- protocolDescription: Solubility of the compound in saline
- Type: physicochemical
reportedEndpoint: solubility (µg/mL)
Write the number in µg/mL without appending the unit.

Measured solubility of CN1CCN(c2nc3c(F)cccc3c(=O)n2-c2ccc(SC(F)(F)F)cc2)CC1 : 952

Measured solubility of CC(C)C[C@H](NC(=O)c1cc2ccccc2s1)C(=O)NCCCN(C)S(=O)(=O)c1ccc(Cl)cc1Cl : 3.6

Measured solubility of CN1CCN(c2nc3c(F)cccc3c(=O)n2-c2ccc(Oc3ccccc3)cc2)CC1 : 745

Measured solubility of CN1CCN(c2nc3c(F)cccc3c(=O)n2-c2ccc(Cc3ccccc3)cc2)CC1 : 553

Measured solubility of CN1CCN(c2nc3c(F)cccc3c(=O)n2-c2ccc(OC(F)(F)F)cc2)CC1 : 951

Measured solubility of CN1CCN(c2nc3c(F)cccc3c(=O)n2-c2ccc(OC3CCOCC3)cc2)CC1 : 1110

Measured solubility of CN1CCN(c2nc3c(F)cccc3c(=O)n2-c2ccc(Oc3ccc(F)cc3)cc2)CC1 : 743

----------
Each item that follows carries a reported log10 of ECmax.
- systemTested: Transient receptor potential cation channel subfamily V member 4 (Homo sapiens, UniProt Q9HBA0)
- Sequence (Q9HBA0 whole entry): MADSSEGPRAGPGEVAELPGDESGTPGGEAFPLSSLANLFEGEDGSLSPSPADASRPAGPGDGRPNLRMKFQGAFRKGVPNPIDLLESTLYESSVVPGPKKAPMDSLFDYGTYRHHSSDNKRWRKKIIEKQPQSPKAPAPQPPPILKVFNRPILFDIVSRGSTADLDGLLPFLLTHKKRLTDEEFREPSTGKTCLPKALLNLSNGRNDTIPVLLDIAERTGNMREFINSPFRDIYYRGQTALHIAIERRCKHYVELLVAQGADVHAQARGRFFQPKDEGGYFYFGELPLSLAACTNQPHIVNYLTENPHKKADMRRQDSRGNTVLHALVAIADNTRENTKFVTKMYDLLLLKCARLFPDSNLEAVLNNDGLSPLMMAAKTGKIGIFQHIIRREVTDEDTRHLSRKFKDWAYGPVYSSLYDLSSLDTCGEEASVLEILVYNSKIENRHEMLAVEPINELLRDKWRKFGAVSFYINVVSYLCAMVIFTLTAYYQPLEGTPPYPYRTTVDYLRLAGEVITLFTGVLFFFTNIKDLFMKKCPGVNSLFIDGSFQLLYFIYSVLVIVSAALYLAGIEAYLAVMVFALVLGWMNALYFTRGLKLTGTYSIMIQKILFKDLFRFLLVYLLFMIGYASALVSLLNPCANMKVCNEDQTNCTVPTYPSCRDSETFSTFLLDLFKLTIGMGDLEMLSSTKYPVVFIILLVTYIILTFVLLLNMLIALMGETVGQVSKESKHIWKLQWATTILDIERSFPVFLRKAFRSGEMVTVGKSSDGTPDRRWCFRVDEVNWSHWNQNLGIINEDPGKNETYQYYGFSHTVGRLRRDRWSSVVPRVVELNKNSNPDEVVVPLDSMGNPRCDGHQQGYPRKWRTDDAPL
- protocolDescription: Agonist activity at recombinant human TRPV4 expressed in […] cells by SOX9 luciferase reporter gene assay
- Assay type: cell-based
Short version: log10 scale, ECmax, nM.

Some entries whose results are on file:
entrySmiles: CC(C)[C@H]1CN(c2nc3cc(F)ccc3c(=O)n2-c2ccc(C(F)(F)F)cc2)CCN1C
log10 of ECmax: 3.70

entrySmiles: CN1CCN(c2nc3cccc(F)c3c(=O)n2-c2ccc(OC(F)(F)F)cc2)CC1
log10 of ECmax: 3.10

Measured log10 of ECmax of CN1CCN(c2nc3cc(F)ccc3c(=O)n2-c2ccc(OC(F)(F)F)cc2)CC1 : 2.80

Measured log10 of ECmax of CC(C)C[C@H](NC(=O)c1cc2ccccc2s1)C(=O)NCCCN(C)S(=O)(=O)c1ccc(Cl)cc1Cl : 2.49

----------
- systemTested: Transient receptor potential cation channel subfamily V member 4 (Homo sapiens, UniProt Q9HBA0)
- protocolDescription: Agonist activity at recombinant human TRPV4 expressed in HEK293 cells assessed as increase in intracellular calcium level after 30 mins by Fura-2 AM/Pluronic F-127 probe based fluorescence assay
Could you please mark TRUE for values of EC50 below 700 nM and FALSE for values at or above it?

entrySmiles: CN1CCN(c2nc3cc(F)ccc3c(=O)n2-c2ccc(C(F)(F)F)cc2)CC1(C)C
categoryLabel: FALSE

entrySmiles: CN1CCN(c2nc3cc(F)ccc3c(=O)n2-c2ccc(OC(F)(F)F)cc2)CC1
categoryLabel: TRUE

entrySmiles: CC(C)c1ccc(-n2c(N3CCN(C)CC3)nc3c(F)cccc3c2=O)cc1
categoryLabel: FALSE

entrySmiles: CN1CCN(c2nc3ccc(F)cc3c(=O)n2-c2ccc(OC(F)(F)F)cc2)CC1
categoryLabel: FALSE

entrySmiles: CN1CCN(c2nc3c(F)cccc3c(=O)n2-c2ccc(Oc3ccc(F)cc3)cc2)CC1
categoryLabel: TRUE

Query :: Lab note: EC50 threshold 700 nM. Does this compound come in strictly under it? CC(C)[C@H]1CN(c2nc3cc(F)ccc3c(=O)n2-c2ccc(C(F)(F)F)cc2)CCN1C
Result :: FALSE

Query :: Lab note: EC50 threshold 700 nM. Does this compound come in strictly under it? CCOC(=O)c1ccc(-n2c(N3CCN(C)CC3)nc3c(F)cccc3c2=O)cc1
Result :: FALSE

Query :: Lab note: EC50 threshold 700 nM. Does this compound come in strictly under it? CN1CCN(c2nc3c(F)cccc3c(=O)n2-c2ccc(SC(F)(F)F)cc2)CC1
Result :: TRUE

Query :: Lab note: EC50 threshold 700 nM. Does this compound come in strictly under it? CCN1CCN(c2nc3cc(F)ccc3c(=O)n2-c2ccc(OC)cc2)CC1
Result :: FALSE
